assay: chemical genetic growth profiling, strain panel (AID 1159580);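 further: tested at 20 µM; growth read once vehicle control cultures reached saturation at 30 °C; 1 = growth at the plate median or of vehicle wells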; details: S. cerevisiae deletion strains, growth OD, locus YGR052W, strain FMP48, active compounds read low
About 2,000 (36%) of roughly 5,500 compounds were called active. Not shown: some 18% with an inconclusive outcome. The list shows a part of the results.
Lab note: anything with normalized growth below 1 is marked 1 (yes); values at 1 or higher are marked 0 (no).

Use these answered entries as a reference point.
N/C(CCSc1ccc(Cl)cc1)=N/OC(=O)Nc1ccc(Cl)cc1    1 (yes)
CC(C)(C)c1ccc(C(=N)SC(C(=O)C(F)(F)F)c2ccccc2)cc1 (configuration not stated)    1 (yes)
CC(=O)/C(C#N)=N\Nc1ccc(F)cc1    1 (yes)

[Q] For this molecule, is normalized growth lower than 1? `Cc1cccc(NC(=S)N/N=C\c2ccc(F)cc2)c1`
[A] 1 (yes)

[Q] For this molecule, is normalized growth lower than 1? `CC(C)(C)c1ccc(N/N=C(\C#N)C(N)=O)cc1`
[A] 1 (yes)

[Q] For this molecule, is normalized growth lower than 1? `O=[N+]([O-])c1ccc(-c2noc(-c3ccno3)n2)o1`
[A] 1 (yes)

----------
Recorded normalized growth by entry
test: chemical genetic growth profiling, strain panel (AID 1159580);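 further: tested at 20 µM; growth read once vehicle control cultures reached saturation at 30 °C; 1 = growth at the plate median or of vehicle wells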; conditions: S. cerevisiae deletion strains, growth OD, locus YDR502C, strain sam2, active compounds read low
The campaign covered roughly 5,500 compounds. About 2,000 (36%) were called active. Roughly 18% stayed inconclusive and do not appear here. Some of the results follow.
The answer should be written as a number, with no unit following it.

These solved cases illustrate the format of a correct answer.
CC(=O)Oc1cc(OC(C)=O)c2c(c1)O[C@H](c1ccc(OC(C)=O)c(OC(C)=O)c1)[C@H](OC(C)=O)C2    1.02
Oc1cc(O)c2c(c1)O[C@H](c1ccc(O)c(O)c1)[C@H](O)C2    1.01
COc1cc2nc(N(C)CCCNC(=O)C3CCCO3)nc(N)c2cc1OC (centres undefined)    1
O=C(Oc1cc(O)cc2c1C[C@@H](OC(=O)c1cc(O)c(O)c(O)c1)[C@@H](c1cc(O)c(O)c(O)c1)O2)c1cc(O)c(O)c(O)c1    0.52
COc1ccc2c(c1)OC1(O)COc3cc(OC)c(OC)cc3C1=C2 (centres undefined)    0.985

[Q] Using known records, supply normalized growth for COc1cc([C@@H]2c3cc4c(cc3C(OC3O[C@@H]5COC(C)O[C@H]5[C@H](O)[C@H]3O)C3COC(=O)[C@@H]32)OCO4)cc(OC)c1O (some centres undefined)
[A] 0.974

[Q] Using known records, supply normalized growth for COc1ccc(OC)c(C(O)CNC(=O)CN)c1 (centres undefined)
[A] 0.981

[Q] Using known records, supply normalized growth for `O=C(O)/C=C/c1ccc(O)c(O)c1`
[A] 0.996

[Q] Using known records, supply normalized growth for `O=C(O[C@@H]1Cc2c(O)cc(O)cc2O[C@@H]1c1cc(O)c(O)c(O)c1)c1cc(O)c(O)c(O)c1`
[A] 0.855

----------
test: chemical genetic growth profiling, strain panel (AID 1159580);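 further: tested at 20 µM; growth read once vehicle control cultures reached saturation at 30 °C; 1 = growth at the plate median or of vehicle wells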; settings: S. cerevisiae deletion strains, growth OD, strain wtn01
Screen size: about 5,500 compounds; about 2,000 (36%) were called active. Inconclusive results (about 18%) are left out. No stated cut-off is given here; in the data, active means normalized growth mostly below about 0.91 (no sharp cut-off); inconclusive means no clear call, values can overlap the other calls; inactive means mostly above about 0.92. The list shows a part of the results.
The reply should be one of these categories: TRUE = active, FALSE = inactive

Use these answered entries as a reference point.
O=C(O)CCCc1ccc(N(CCCl)CCCl)cc1    FALSE
O=c1c(-c2ccc(O)cc2)coc2cc(O)ccc12    FALSE
C[C@]12CCC(=O)C=C1C=CC1C2CC[C@@]2(C)C1CC[C@@]21CCC(=O)O1 (stereo not given in full)    FALSE

Now look at this entry.
[Q] Would you mind telling me which call this test gave `COc1ccc(C(=O)O)cc1OC` ?
[A] FALSE

Cited source: PubChem BioAssay AID1159580
